# assay protocol: growth suppression of beta-catenin knockout HCT116, pilot screen, human colon tumor cells (AID 823);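 further: 0% = wells killed by 20 µM Hyamine and 100% = untreated DMSO cell wells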
# measurement context: CellTiter-Glo, 60 h, at 10 µM, active compounds read low
Records with an inconclusive call do not appear.
assay endpoint: viability (%)
One number for each entry, in %.

compound | assay endpoint | value unit | measured
Cn1c(=O)oc2cc(S(=O)(=O)NC3CCCc4ccccc43)ccc21 (centres undefined) | viability | % | 92.4
Cc1cnc(C(=O)OCC(=O)Nc2cc(Cl)cc(Cl)c2)cn1 | viability | % | 96.7
CCOC(=O)N1CCC(NC(=O)CS(=O)(=O)Cc2nc(-c3ccc(C)cc3)oc2C)CC1 | viability | % | 75.3
COc1ccc(-c2cc(C(F)(F)F)nc(N3CCN(C)CC3)n2)cc1 | viability | % | 33.7
CCOc1ccc(-c2cc(NC(=O)Cn3ncc4c3-c3ccccc3OC4)on2)cc1OCC | viability | % | 98.8
CC(C)C(=O)Nc1nnc(-c2ccccc2)o1 | viability | % | 102
COC(=O)C1CCN(C(=O)c2ccccc2NC(C)=O)CC1 | viability | % | 101
c1ccc2c(c1)[nH]c1nc3nncn3nc12 | viability | % | 94

Next up:
**Q:** Quick one: viability for "CCOC(=O)C(CCOc1cccc(CC)c1)C(=O)OCC" ?
**A:** 89.5

* * *

# assay protocol: viability gain of MRP-1-high H69AR cells under doxorubicin, pilot screen, MRP-1 activator project, CellTiter-Glo, duplicate (AID 807);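 further: compound pretreatment 18-22 h then 72 h combined with doxorubicin; 0% = doxorubicin alone and 100% = vehicle without doxorubicin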
# measurement context: H69AR viability with doxorubicin, CellTiter-Glo luminescence; at 10 µM; active compounds read high
assay endpoint: viability increase (%)
Give bare numbers, in %.

Some compounds with recorded viability increase:
compound | assay endpoint | measured
Cc1cccc(NC(=O)COc2ccc(Br)cc2C)n1 | viability increase | 1.07
CCOc1ccc(N(CC(=O)Nc2ccc(C)cc2)S(=O)(=O)c2c(C)noc2C)cc1 | viability increase | -3.45
CCOC(=O)NC(C(F)(F)F)(C(F)(F)F)P(=O)(c1ccccc1)c1ccccc1 | viability increase | -0.51
CCOc1ccccc1C1CC(c2ccc(F)cc2)Nc2nc(N)nn21 (stereo not drawn) | viability increase | 1.61
Cc1ccc(C2/C(=C(/O)c3ccc(Cl)cc3)C(=O)C(=O)N2CC2CCCO2)o1 (stereo not drawn) | viability increase | -3.2
O=c1nc2scc(-c3ccccc3)n2c2ccccc12 | viability increase | -2.24

# batch: return viability increase for each of the 2 compounds below
1. O=C(OCCNc1ncc(C(F)(F)F)cc1Cl)c1ccc(S(=O)(=O)N2CCOCC2)cc1
2. CCOC(=O)C1=C(C)NC(C)=C(C(=O)OCC)C1c1nc2ccccc2[nH]1

**A:**
1. -2.03
2. -1.33

* * *

# assay protocol: growth suppression of beta-catenin knockout HCT116, pilot screen, human colon tumor cells (AID 823);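 further: 0% = wells killed by 20 µM Hyamine and 100% = untreated DMSO cell wells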
# measurement context: CellTiter-Glo, 60 h, at 10 µM, active compounds read low
Results filed as inconclusive are left out.
Hi there, I'd appreciate the recorded viability for every entry that follows.
Numbers only, in %.

Some molecules with recorded viability:
molecule | assay endpoint | measured
Cc1ccc(-n2c(SCC(=O)Nc3cc(C)on3)nc3c(c2=O)SC(C)C3)cc1 (stereo not given) | viability | 87.5
O=C(CN1CCOc2ccccc21)N1CCC(Cc2ccccc2)CC1 | viability | 88
CC(C)NS(=O)(=O)c1ccc(CCC(=O)NCc2cccnc2)cc1 | viability | 88
CCOC(=O)c1[nH]c(=O)[nH]c1COC(=O)c1cc2ccccc2o1 | viability | 92.6

**Q:** Quick one: viability for COc1ccc(C(=O)NCC(c2cccnc2)N2CCN(c3ccccc3OC)CC2)cc1OC (stereo not given) ?
**A:** 89.4
